Provide the recorded sfGFP reporter fluorescence for the entries that follow.
B1: library; a variant is named by its letters at X, in order (parent)
chain: MNIQIGELAKRTACPVVTIRFYEQEGLLPPPGRSRGNFRLYGEEHVERLQFIRHCRSLDMPLSXVRTLLSYRKRPDQDCGEVXMLLDEHIRQVESRIGALLELXHHXVELREACSGARPAQSCGILQXLSXCVCXTRGTTAHXSD

# Variants of: B1
# protocol: sfGFP reporter fluorescence (15 h) (µM FITC); higher = stronger transcriptional activation
# stated_conditions: library round: Round 3; ligand: 30 µM Zn
Numbers only.

Q. Tell me measured sfGFP reporter fluorescence for `DSKLGAPW` please.
A. 0.227

Q. Give recorded sfGFP reporter fluorescence. KNVCGDDP M60L P61S
A. 2.58

Q. Supply measured sfGFP reporter fluorescence of `DNKCGSAY` in your reply.
A. 2.35

Q. Return the recorded sfGFP reporter fluorescence value; entry: DTKIGDDP V108L E112A
A. 0.294

Below are some variants; for each one, tell me its sfGFP reporter fluorescence.
1. KCVCMDDP V16C
2. DTKLGCDA Q121A
3. KNVLMDDP M60L P61N
4. DNKCMDAA D87E
5. KNVCIDDP M60L P61N
6. LILCGAAP V16C H54C C55P H106A
7. KFVLGDDR H106N
8. DNKCMDAK P61D

A.
[0.434, 0.117, 2.45, 2.28, 2.32, 0.0502, 0.263, 2.24]

Items follow; give sfGFP reporter fluorescence for each.
1. KNKCIDDP M60L P61N
2. DTKLGHPY Q121A
3. DNKCGAAP H54C C55A
4. DNRCIDAK G124A
5. KNMCMDDP P61N

A.
2.88
0.289
1.92
2.32
2.66

Below are some variants; for each one, tell me its sfGFP reporter fluorescence.
1. KNKCSDDP M60L P61N
2. KNKCMDDP M60L P61D
3. DTKLGCDP V108L Q121A
4. LIVCGAAP H54C C55P H106L
5. DTKCMDAP G124A

A.
3.18
3.28
0.116
0.0495
2.41

// each listed variant needs a value for sfGFP reporter fluorescence
1. LILCGAAC V16C H54C C55P E81A H106A
2. DSKLGHPY
3. DTKLGAPW V108L

A.
[0.0463, 0.234, 0.178]
